# Test system: test plant species
# assay-procedure: Post-emergent herbicidal activity test (greenhouse, foliar spray, visual growth reduction)
# Assay type: in vivo
# protocol-conditions: post-emergence, 336 h, ECHCG: barnyardgrass (Echinochloa crus-galli), 140 g ai/ha, 14 days after application, read-out: Visual Growth Reduction (%) 14 Days After Application, ECHCG
# Text: Post-emergent Test: Seeds or nutlets of the desired test plant species were planted in Sun Gro Metro-Mix® 360 planting mixture, which typically has a pH of 6.0 to 6.8 and an organic matter content of about 30 percent, in plastic pots with a surface area of 64 square centimeters. In some aspects, to ensure good germination and healthy plants, a fungicide treatment and/or other chemical or physical treatment was applied. […]
quantity-measured: pest or weed control at 140 g/ha

Worked set:
molecule_smiles=COC(=O)c1nc(-c2cc3c(cc2Cl)OCO3)c(Cl)cc1Cl system_name="test plant species" measured_value="0 to 29%"
molecule_smiles=COC(=O)c1nc(-c2ccc(C(F)(F)F)c3ccoc23)c(F)cc1Cl system_name="test plant species" measured_value="0 to 29%"
molecule_smiles=COC(=O)c1nc(-c2ncc(Cl)c(C(F)F)c2Cl)ccc1Cl system_name="test plant species" measured_value="85 to 94%"

Need pest or weed control at 140 g/ha for each of these compounds.
1. COC(=O)c1nc(-c2ccc(C(F)(F)F)c(F)c2)c(F)cc1Cl
2. COC(=O)c1nc(-c2ccc(C(F)(F)F)c(F)c2F)c(F)cc1Cl

1. 0 to 29%
2. 60 to 74%

Need pest or weed control at 140 g/ha for each of these compounds.
1. O=C(O)c1nc(-c2ccc(C(F)(F)F)cc2)c(Cl)cc1Cl
2. COC(=O)c1nc(-c2ccc(N)cc2Cl)c(F)cc1Cl

1: 0 to 29%; 2: 0 to 29%
